Reference source: patent US9309224B2

molecular target: unphosphorylated c-KIT kinase (uKIT, Seq. ID no. 2) (Homo sapiens); construct: uKit with N-terminal GST fusion used for; assay: uKit kinase assay (pyruvate kinase/lactate dehydrogenase coupled); conditions: ATP 2000 μM
Sequence (P10721 with tags, fused parts or gaps): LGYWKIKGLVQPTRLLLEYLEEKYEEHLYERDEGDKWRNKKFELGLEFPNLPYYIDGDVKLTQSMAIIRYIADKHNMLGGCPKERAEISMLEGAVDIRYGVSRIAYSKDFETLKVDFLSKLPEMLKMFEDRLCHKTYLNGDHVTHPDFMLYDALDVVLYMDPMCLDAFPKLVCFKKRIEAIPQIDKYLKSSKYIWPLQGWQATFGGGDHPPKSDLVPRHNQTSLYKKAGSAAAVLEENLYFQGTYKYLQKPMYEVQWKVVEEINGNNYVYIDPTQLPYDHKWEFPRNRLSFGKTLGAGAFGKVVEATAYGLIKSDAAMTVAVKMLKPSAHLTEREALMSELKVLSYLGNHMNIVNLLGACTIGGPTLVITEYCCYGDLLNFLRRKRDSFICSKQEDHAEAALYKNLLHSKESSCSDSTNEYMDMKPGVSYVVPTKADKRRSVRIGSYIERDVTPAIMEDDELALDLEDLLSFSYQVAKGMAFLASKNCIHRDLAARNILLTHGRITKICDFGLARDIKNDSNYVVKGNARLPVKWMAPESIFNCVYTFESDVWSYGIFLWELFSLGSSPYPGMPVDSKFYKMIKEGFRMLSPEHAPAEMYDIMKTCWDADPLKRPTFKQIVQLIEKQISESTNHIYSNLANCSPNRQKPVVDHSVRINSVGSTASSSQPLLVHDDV
Here, each record is paired with measured IC50 data.

Would you please look over these solved cases?
CC(C)C(=O)NC(=O)Nc1ccc(Oc2ccnc(NC(=O)N3CCN(C)CC3)c2)cn1; > 1 µM
COC1(C(=O)NC(=O)Nc2ccc(Oc3ccnc(NC(C)=O)c3)cn2)CC1; > 1 µM
CNC(=O)c1cc(Oc2ccc(NC(=O)NC(=O)C3(C(F)(F)F)CCC3)nc2)ccn1; > 1 µM
CN(C)C(=O)Nc1cc(Oc2ccc(NC(=O)NC(=O)C(C)(C)C)nc2)ccn1; > 1 µM
Cc1nc(NC(=O)NC(=O)C(C)(C)C)ccc1Oc1ccnc(NC(=O)N2CCCC2)c1; > 1 µM

State the measured IC50 (unphosphorylated c-KIT kinase (uKIT, Seq. ID no. 2) (Homo sapiens)) of CCC(=O)Nc1cc(Oc2ccc(NC(=O)NC(=O)C3CCOCC3)nc2)ccn1
> 1 µM

State the measured IC50 (unphosphorylated c-KIT kinase (uKIT, Seq. ID no. 2) (Homo sapiens)) of CN1CCN(C(=O)Nc2cc(Oc3ccc(NC(=O)NC(=O)C(C)(C)C)nc3)ccn2)CC1
0.1 to 1 µM

State the measured IC50 (unphosphorylated c-KIT kinase (uKIT, Seq. ID no. 2) (Homo sapiens)) of Cc1nc(NC(=O)NC(=O)C(C)(C)C)ccc1Oc1ccnc(NC(=O)C(C)C)c1
> 1 µM

State the measured IC50 (unphosphorylated c-KIT kinase (uKIT, Seq. ID no. 2) (Homo sapiens)) of CN(C)[C@@H]1CCN(C(=O)Nc2cc(Oc3ccc(NC(=O)NC(=O)C(C)(C)C)nc3)ccn2)C1
> 1 µM

----------
Here, each record is paired with measured pIC50 data.
molecular target: phospho-FMS in THP-1 cells (Homo sapiens, UniProt P07333); construct: endogenous in cells; test: Phospho-FMS ELISA assay in THP-1 cells; settings: 4 hours compound, M-CSF stimulated; read-out: pFMS inhibition in THP-1 cells
Sequence (P07333 20-972): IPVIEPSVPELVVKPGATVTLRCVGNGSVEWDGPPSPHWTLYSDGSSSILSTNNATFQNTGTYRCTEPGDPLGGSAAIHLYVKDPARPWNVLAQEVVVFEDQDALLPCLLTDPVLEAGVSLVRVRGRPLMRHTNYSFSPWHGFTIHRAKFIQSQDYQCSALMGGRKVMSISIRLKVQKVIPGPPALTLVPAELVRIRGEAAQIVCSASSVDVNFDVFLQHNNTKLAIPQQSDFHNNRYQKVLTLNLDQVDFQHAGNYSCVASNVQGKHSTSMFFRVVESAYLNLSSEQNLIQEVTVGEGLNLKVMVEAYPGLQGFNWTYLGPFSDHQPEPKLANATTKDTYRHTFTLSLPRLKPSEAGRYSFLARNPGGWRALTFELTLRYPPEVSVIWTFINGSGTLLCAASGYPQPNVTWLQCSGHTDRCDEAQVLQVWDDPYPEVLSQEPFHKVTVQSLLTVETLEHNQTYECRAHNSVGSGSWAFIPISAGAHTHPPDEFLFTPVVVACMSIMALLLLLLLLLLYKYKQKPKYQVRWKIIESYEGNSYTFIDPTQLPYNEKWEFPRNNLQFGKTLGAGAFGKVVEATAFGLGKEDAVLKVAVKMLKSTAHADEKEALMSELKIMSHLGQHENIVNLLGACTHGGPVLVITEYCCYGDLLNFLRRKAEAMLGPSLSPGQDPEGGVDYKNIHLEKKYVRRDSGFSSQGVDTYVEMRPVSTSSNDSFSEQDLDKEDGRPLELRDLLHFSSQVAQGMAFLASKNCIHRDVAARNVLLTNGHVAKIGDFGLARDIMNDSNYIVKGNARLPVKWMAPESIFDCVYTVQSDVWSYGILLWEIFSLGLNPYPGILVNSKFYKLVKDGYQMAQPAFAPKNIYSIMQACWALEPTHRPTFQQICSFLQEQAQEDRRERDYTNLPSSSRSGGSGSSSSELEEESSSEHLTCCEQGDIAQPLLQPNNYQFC
pIC50: −log10 of the molar value.

Would you please look over these solved cases?
CNC(=O)c1cc(Oc2ccc(NC(=O)NC(=O)C3(OC)CCCC3)nc2)ccn1; > 8.00
CC(=O)Nc1cc(Oc2ccc(NC(=O)NC(=O)C(C)(C)C)nc2)ccn1; > 8.00
CC(=O)Nc1cc(Oc2ccc(NC(=O)NC(=O)C3CCOCC3)nc2)ccn1; > 8.00
CC(C)C(=O)Nc1cc(Oc2ccc(NC(=O)NC(=O)C(C)(C)C)nc2)ccn1; 7.00 to 8.00
CNC(=O)Nc1cc(Oc2ccc(NC(=O)NC(=O)C(C)(C)C)nc2)ccn1; 7.00 to 8.00
CN1CCN(C(=O)Nc2cc(Oc3ccc(NC(=O)NC(=O)C(C)(C)C)nc3)ccn2)CC1; > 8.00
CCN1CCN(C(=O)Nc2cc(Oc3ccc(NC(=O)NC(=O)C(C)(C)C)nc3)ccn2)CC1; > 8.00

# next molecule below
Report pIC50, nothing else, for this molecule: COC(C)(C)C(=O)NC(=O)Nc1ccc(Oc2ccnc(NC(C)=O)c2)c(C)n1
> 8.00

----------
tested on: osteoclast precursors; experiment: Osteoclast tartrate-resistant acid phosphatase assay; type: cell-based; conditions: Osteoclast; 7-14 days, RANKL and M-CSF
Here, each record is paired with measured IC50 data.

Would you please look over these solved cases?
CCC(=O)Nc1cc(Oc2ccc(NC(=O)NC(=O)C3(C)CC3)nc2)ccn1; < 10 nM
CNC(=O)c1cc(Oc2ccc(NC(=O)NC(=O)C3(C(F)(F)F)CCC3)nc2)ccn1; 10 to 100 nM
CCC(=O)Nc1cc(Oc2ccc(NC(=O)NC(=O)C(C)(C)C)nc2C)ccn1; 10 to 100 nM
COC1(C(=O)NC(=O)Nc2ccc(Oc3ccnc(NC(=O)C4CCN(C)CC4)c3)cn2)CC1; 100 to 1000 nM

Report IC50, nothing else, for this compound: COC1(C(=O)NC(=O)Nc2ccc(Oc3ccnc(NC(C)=O)c3)cn2)CCCC1
< 10 nM

Report IC50, nothing else, for this compound: CNC(=O)Nc1cc(Oc2ccc(NC(=O)NC(=O)C(C)(C)C)nc2)ccn1
10 to 100 nM

Report IC50, nothing else, for this compound: CN1CCC(C(=O)Nc2cc(Oc3ccc(NC(=O)NC(=O)C(C)(C)C)nc3)ccn2)C1 (centres unmarked)
100 to 1000 nM

Report IC50, nothing else, for this compound: CN(C)[C@H]1CCN(C(=O)Nc2cc(Oc3ccc(NC(=O)NC(=O)C(C)(C)C)nc3)ccn2)C1
< 10 nM
